# EXPERIMENTAL TARGET: T1, TLR8 extracellular domain (Homo sapiens, UniProt Q9NR97 27-827)
# T1 sequence: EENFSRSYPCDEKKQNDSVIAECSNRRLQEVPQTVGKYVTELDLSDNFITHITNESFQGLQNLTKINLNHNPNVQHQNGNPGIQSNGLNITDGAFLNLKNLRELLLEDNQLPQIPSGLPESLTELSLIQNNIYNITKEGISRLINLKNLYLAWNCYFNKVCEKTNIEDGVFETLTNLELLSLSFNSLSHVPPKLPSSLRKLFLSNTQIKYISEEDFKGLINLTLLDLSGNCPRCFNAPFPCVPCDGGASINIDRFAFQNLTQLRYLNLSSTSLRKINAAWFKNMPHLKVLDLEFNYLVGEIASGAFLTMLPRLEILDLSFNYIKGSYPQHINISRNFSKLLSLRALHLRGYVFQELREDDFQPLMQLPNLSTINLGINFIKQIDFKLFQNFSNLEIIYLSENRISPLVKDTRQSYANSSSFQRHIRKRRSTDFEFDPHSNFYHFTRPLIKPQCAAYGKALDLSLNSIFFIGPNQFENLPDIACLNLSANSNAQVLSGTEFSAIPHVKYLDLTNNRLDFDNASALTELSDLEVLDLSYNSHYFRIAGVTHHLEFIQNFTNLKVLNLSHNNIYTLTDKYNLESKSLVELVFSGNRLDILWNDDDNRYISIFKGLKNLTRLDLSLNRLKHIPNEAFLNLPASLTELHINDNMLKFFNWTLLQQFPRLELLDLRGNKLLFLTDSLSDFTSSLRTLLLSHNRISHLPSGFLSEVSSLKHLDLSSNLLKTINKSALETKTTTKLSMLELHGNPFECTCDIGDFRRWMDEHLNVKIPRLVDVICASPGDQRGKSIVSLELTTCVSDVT
# PROTOCOL: SPR
READOUT LABEL: Kd
Quick note: number first, unit second.

Exam item: I have this binder here, GAG (XNA, 2'-OMe at G1 and A2; DNA G3; phosphorothioate linkages, stereorandom) [GAG-v1 (mGmAdG)] , and I need its recorded Kd.
Marked response: 4 µM
